Experimental Details: Effective concentration for 50% inhibition of endothelial cell based plasminogen activity relative to control by beta-PDBu stimulation
Type: functional
Measured Quantity: pEC50
Give bare numbers, as −log10 of the molar value.

Q) What value of pEC50 has been recorded for this entry: O=C1NC(=O)C2=C1c1cn(c3ccccc13)CCO[C@H](CO)CCn1cc2c2ccccc21
A) 5.52
